Target: Peroxisome proliferator-activated receptor gamma (Homo sapiens)
Sequence (P37231 whole entry): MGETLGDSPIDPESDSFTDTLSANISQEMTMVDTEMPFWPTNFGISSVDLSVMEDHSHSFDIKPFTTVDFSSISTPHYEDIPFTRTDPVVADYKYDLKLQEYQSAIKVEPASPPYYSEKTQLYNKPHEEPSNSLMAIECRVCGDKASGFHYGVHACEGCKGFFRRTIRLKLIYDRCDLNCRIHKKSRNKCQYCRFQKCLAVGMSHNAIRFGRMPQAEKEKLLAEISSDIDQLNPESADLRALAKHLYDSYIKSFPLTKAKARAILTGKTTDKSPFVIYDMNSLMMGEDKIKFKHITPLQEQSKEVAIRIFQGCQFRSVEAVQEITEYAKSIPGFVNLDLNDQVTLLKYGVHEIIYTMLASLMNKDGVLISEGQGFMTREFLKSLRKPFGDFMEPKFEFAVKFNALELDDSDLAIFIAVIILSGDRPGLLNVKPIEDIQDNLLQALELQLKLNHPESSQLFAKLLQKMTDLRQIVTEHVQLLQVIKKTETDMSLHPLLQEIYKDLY
Experiment: Binding affinity to PPARgamma (unknown origin) assessed as inhibition constant by Lanthascreen TR-FRET assay relative to control
quantityName: Ki (µM)
Enter your answer as a number in µM; do not include the unit.

Inquiry: Missing value: Ki, Peroxisome proliferator-activated receptor gamma (Homo sapiens), entry O=c1c(O)c(-c2ccccc2)oc2cc(O)cc(O)c12 . Fill in?
Reply text: 5.6
